Cited source: PubChem BioAssay (NCI)

# System: UACC-62 melanoma
# experiment-summary: NCI tumour cell line growth inhibition, 48 h
Kindly state TGI for each of the entries shown.

Form: molecule = COc1cc2cc(C(=O)N3CC(CCl)c4ccc([N+](=O)[O-])cc43)[nH]c2c(OC)c1OC (stereo not given) ; TGI = > 100 µM

Form: molecule = COc1ccc(NC(C)=O)cc1N1C(=O)/C(=C\c2ccccc2)SC1c1cc(OC)c(OC)c(OC)c1 (stereo not given) ; TGI = > 100 µM

Form: molecule = Cc1cc(=O)oc2c(CNC(CO)C(=O)O)c(O)ccc12 (stereo not given) ; TGI = > 100 µM

Form: molecule = CC(=O)O[C@H]1CC[C@H]2[C@@H]3CCC4=CC(=O)C=C[C@]4(O)[C@H]3CC[C@]12C ; TGI = > 90.2 µM

Form: molecule = Oc1c(Cl)cc(Cl)cc1/C=N/Nc1nnc(N/N=C/c2cc(Cl)cc(Cl)c2O)c2ccccc12 ; TGI = 1.71 µM
